biological target: Beta-secretase 1 (Homo sapiens); assay: Activity of recombinant BACE assessed as retention time of substrate by HPLC method
Non-standard residues stand in square brackets, D forms with d. Residues, ends and D or L forms follow the SMILES beside them. Nva = CCC[C@H](N)C(=O)O
MEASUREMENT_LABEL: retention time (h)
Entry rule: numbers only, all in h.

MOLECULE	ASSAY_TARGET	READING_UNIT	EXPERIMENTAL_RESULT
CC[C@H](C)[C@H](N)C(=O)N[C@@H](CO)C(=O)N[C@@H](CCC(N)=O)C(=O)N[C@H](C(=O)N[C@@H](CC(N)=O)C(=O)N[C@@H](CC(C)C)C(=O)N[C@@H](CC(=O)O)C(=O)N[C@@H](C)C(=O)N[C@@H](CCC(=O)O)C(=O)N[C@@H](Cc1ccccc1)C(=O)N[C@@H](CCCNC(=N)N)C(=O)N[C@@H](Cc1cnc[nH]1)C(N)=O)C(C)C (H-ISQVNLDAEFRH-NH2)	Beta-secretase 1 (Homo sapiens)	h	0.469
CCC[C@H](NC(=O)[C@H](CO)NC(=O)[C@@H](N)[C@@H](C)CC)C(=O)N[C@H](C(=O)N[C@@H](CC(N)=O)C(=O)N[C@@H](CC(C)C)C(=O)N[C@@H](CC(=O)O)C(=O)N[C@@H](C)C(=O)N[C@@H](CCC(=O)O)C(=O)N[C@@H](Cc1ccccc1)C(=O)N[C@@H](CCCNC(=N)N)C(=O)N[C@@H](Cc1cnc[nH]1)C(N)=O)C(C)C (H-IS[Nva]VNLDAEFRH-NH2)	Beta-secretase 1 (Homo sapiens)	h	0.567

Turning to the following molecule.
Lab note: CC[C@H](C)[C@H](N)C(=O)N[C@@H](CO)C(=O)N[C@@H](CCC(=O)O)C(=O)N[C@H](C(=O)N[C@@H](CC(N)=O)C(=O)N[C@@H](CC(C)C)C(=O)N[C@@H](CCC(N)=O)C(=O)N[C@@H](C)C(=O)N[C@@H](CCC(=O)O)C(=O)N[C@@H](Cc1ccccc1)C(=O)N[C@@H](CCCNC(=N)N)C(=O)N[C@@H](Cc1cnc[nH]1)C(N)=O)C(C)C (H-ISEVNLQAEFRH-NH2) gave retention time of 0.52

----------
target: Beta-secretase 1 (Homo sapiens) (UniProt P56817); test: Activity of recombinant BACE assessed as retention time of substrate by HPLC method
Sequence (P56817 whole entry): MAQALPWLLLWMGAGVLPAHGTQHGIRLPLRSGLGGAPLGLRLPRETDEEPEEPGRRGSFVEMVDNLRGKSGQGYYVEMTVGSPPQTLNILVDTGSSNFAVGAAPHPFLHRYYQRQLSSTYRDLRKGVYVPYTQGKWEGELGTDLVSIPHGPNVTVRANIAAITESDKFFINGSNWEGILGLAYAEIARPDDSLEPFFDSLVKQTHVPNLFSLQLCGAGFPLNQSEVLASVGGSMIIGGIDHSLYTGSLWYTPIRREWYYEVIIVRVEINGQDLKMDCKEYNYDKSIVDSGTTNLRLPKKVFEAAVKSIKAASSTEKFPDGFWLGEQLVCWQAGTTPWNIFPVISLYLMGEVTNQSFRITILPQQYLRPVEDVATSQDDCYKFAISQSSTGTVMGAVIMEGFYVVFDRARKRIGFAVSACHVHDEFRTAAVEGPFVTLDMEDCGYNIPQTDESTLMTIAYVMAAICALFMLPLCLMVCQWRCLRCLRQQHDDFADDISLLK
Starred links: 1 amine or outer side, 2 acyl side, 3 side chain; linkers in the order of their positions; H or OH if unused. Non-standard residues stand in square brackets, D forms with d. Residues, ends and D or L forms follow the SMILES beside them. X1 = O=C(O)[C@@H]1Cc2ccccc2CN1[C@H](N[*:1])C(=O)[*:2]
MEASUREMENT_LABEL: retention time (h)
Entry rule: numbers only, all in h.

MOLECULE	READING_UNIT	retention time
CC[C@H](C)[C@H](N)C(=O)N[C@@H](CO)C(=O)N[C@@H](CCC(=O)O)C(=O)N[C@H](C(=O)N[C@@H](CC(N)=O)C(=O)N[C@@H](CC(C)C)C(=O)N[C@H](C(=O)N[C@@H](C)C(=O)N[C@@H](CCC(=O)O)C(=O)N[C@@H](Cc1ccccc1)C(=O)N[C@@H](CCCNC(=N)N)C(=O)N[C@@H](Cc1cnc[nH]1)C(N)=O)N1Cc2ccccc2C[C@H]1C(=O)O)C(C)C (H-ISEVNL[X1]AEFRH-NH2)	h	0.648

Lab note: CC[C@H](C)[C@H](N)C(=O)N[C@@H](CO)C(=O)N[C@@H](CCC(=O)O)C(=O)N[C@H](C(=O)N[C@@H](CCSC)C(=O)N[C@@H](CC(C)C)C(=O)N[C@@H](CC(=O)O)C(=O)N[C@@H](C)C(=O)N[C@@H](CCC(=O)O)C(=O)N[C@@H](Cc1ccccc1)C(=O)N[C@@H](CCCNC(=N)N)C(=O)N[C@@H](Cc1cnc[nH]1)C(N)=O)C(C)C (H-ISEVMLDAEFRH-NH2) gave retention time of 0.521
